B1: Transcription factor SOX-11, residues 50 to 117; numbered along this chain, P35716 (parent)
chain: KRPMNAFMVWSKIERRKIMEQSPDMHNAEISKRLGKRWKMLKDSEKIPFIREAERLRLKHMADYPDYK

# Variants of: B1
# procedure.summary: abundance fitness (aPCA) (normalised: wild type 0, dead -1); higher = more abundant; growth selection in yeast, the domain comes from the species named
# setup.conditions: Homo sapiens
# binarize abundance fitness: threshold -0.4 inclusive, high side met, low side not met

Hi team, for P23E , is the recorded abundance fitness at or above -0.4?
not met

Hi team, for K42V , is the recorded abundance fitness at or above -0.4?
not met

Hi team, for M25V , is the recorded abundance fitness at or above -0.4?
met

Hi team, for S31W , is the recorded abundance fitness at or above -0.4?
met

Hi team, for R37G , is the recorded abundance fitness at or above -0.4?
met

Hi team, for M19V , is the recorded abundance fitness at or above -0.4?
met

Hi team, for R37M , is the recorded abundance fitness at or above -0.4?
met

Hi team, for W38H , is the recorded abundance fitness at or above -0.4?
not met

Hi team, for S31F , is the recorded abundance fitness at or above -0.4?
met

Hi team, for H26Y , is the recorded abundance fitness at or above -0.4?
met

Hi team, for K46H , is the recorded abundance fitness at or above -0.4?
not met

Hi team, for M40Y , is the recorded abundance fitness at or above -0.4?
met

Hi team, for S31H , is the recorded abundance fitness at or above -0.4?
met

Hi team, for A28F , is the recorded abundance fitness at or above -0.4?
not met

Hi team, for K32P , is the recorded abundance fitness at or above -0.4?
not met
